# SYSTEM NAME: T1, F-BAR domain of PSTPIP1 (residues 1-289), wild type (human, UniProt O43586 1-289)
# T1 construct: PSTPIP1, human, UniProt O43586, region 1-289 (F-BAR domain); modified pET15b with TEV site; homodimer in the crystals; also called wild type F-BAR; F-BAR of PSTPIP1; not shown: poly-His, N-terminal, cleaved
# T1 sequence (O43586 1-289): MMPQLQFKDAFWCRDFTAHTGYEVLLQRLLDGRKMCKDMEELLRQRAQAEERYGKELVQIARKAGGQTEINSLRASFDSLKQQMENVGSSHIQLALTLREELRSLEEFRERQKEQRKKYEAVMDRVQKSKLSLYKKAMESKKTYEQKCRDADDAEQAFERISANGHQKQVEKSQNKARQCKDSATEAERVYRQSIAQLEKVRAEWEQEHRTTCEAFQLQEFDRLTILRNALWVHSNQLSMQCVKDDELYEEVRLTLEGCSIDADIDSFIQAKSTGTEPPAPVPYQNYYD
# TEST SUMMARY: fluorescence polarisation; fluorescence anisotropy; fluorescein-LYP-CTH (2 nM) titrated with the F-BAR of PSTPIP1; 20 mM Tris/HCl pH 7.5, 150 mM NaCl, 0.1 mg/mL BSA; 25 °C; apparent kd, one-to-one binding model
# CONDITION DESCRIPTION: both partners purified
Ends that are not written are not given here.
EXPERIMENTAL ENDPOINT: Kd

Task: Any idea what Kd was measured for fluorescein-GFANRFSKPKGPRNPPPTWNI (LYP (PTPN22), human, UniProt Q9Y2R2-1, region 787-807 (C-terminal homology segment, CTH); also called fluorescein-labeled LYP-CTH; synthetic peptide of the CTH of LYP (residues 787-807) labeled with fluorescein; source: synthetic peptide (custom synthesized, Thermo Scientific, Germany)) [fluorescein-LYP-CTH] ?
Output: ~20 nM
